# Tested on: Plasmodium falciparum
# assayProcedure: Antimalarial activity against Plasmodium falciparum 3D7 after 48 hrs by LDH colorimetric assay
# Format: functional, organism-based
# conditionNotes: 3D7, 48 h
parameter: IC50 (nM)
Numbers only, in nM.

Before answering, review these 5 worked examples.
molecule | IC50, nM
Cc1ccc(C(=O)/C=C/c2ccc(C(N)=O)cc2)o1 | 10000
Cc1ccc(C(=O)/C=C/c2ccc(C(=O)N(C)CCCNc3ccnc4cc(Cl)ccc34)cc2)o1 | 370
Cc1ccc(C(=O)/C=C/c2ccc(C(=O)NCCCCNc3ccnc4cc(Cl)ccc34)cc2)o1 | 50
Cc1ccc(C(=O)/C=C/c2ccc(C(=O)N3CCN(c4ccnc5cc(Cl)ccc45)CC3)cc2)o1 | 540
Cc1ccc(C(=O)/C=C/c2ccc(C(=O)NC(C)CNc3ccnc4cc(Cl)ccc34)cc2)o1 (centres undefined) | 80

Lab note: each molecule below needs its IC50 filled in.
1. Cc1ccc(C(=O)/C=C/c2ccc(C(=O)NCCOCCOCCNc3ccnc4cc(Cl)ccc34)cc2)o1
2. CCCCNC(=O)c1ccc(/C=C/C(=O)c2ccc(C)o2)cc1
3. Cc1ccc(C(=O)/C=C/c2ccc(C(=O)NCCCN(C)CCCNc3ccnc4cc(Cl)ccc34)cc2)o1

[out]
[260, 10000, 90]

====

# assayProcedure: Selectivity index, ratio of IC50 for human WI38 cells to IC50 for Plasmodium falciparum 3D7
# Assay type: toxicity, cell-based, WI-38
# conditionNotes: read-out: Ratio IC50
parameter: selectivity ratio
Answers are plain numbers.

Solved cases (3 shown):
compound | parameter | reportedMeasurement
Cc1ccc(C(=O)/C=C/c2ccc(C(=O)NCCCNc3ccnc4cc(Cl)ccc34)cc2)o1 | selectivity ratio | 1120
Cc1ccc(C(=O)/C=C/c2ccc(C(=O)N(C)CCCNc3ccnc4cc(Cl)ccc34)cc2)o1 | selectivity ratio | 50
Cc1ccc(C(=O)/C=C/c2ccc(C(=O)NCCCCNc3ccnc4cc(Cl)ccc34)cc2)o1 | selectivity ratio | 819

Moving on to the next compound.
[in] Looking for the measured selectivity ratio of Cc1ccc(C(=O)/C=C/c2ccc(C(=O)NC(C)CNc3ccnc4cc(Cl)ccc34)cc2)o1 (centres undefined) , can you help?
[out] 126

====

# assayProcedure: Selectivity index, ratio of IC50 for human WI38 cells to IC50 for Plasmodium falciparum 3D7
# Format: toxicity, cell-based, WI-38
# conditionNotes: read-out: Ratio IC50
For each record, write down the corresponding selectivity ratio.
One number for each entry.

Some compounds with recorded selectivity ratio:
givenSmiles | selectivity ratio
Cc1ccc(C(=O)/C=C/c2ccc(C(=O)NCCOCCOCCNc3ccnc4cc(Cl)ccc34)cc2)o1 | 40
Cc1ccc(C(=O)/C=C/c2ccc(C(=O)NCCNc3ccnc4cc(Cl)ccc34)cc2)o1 | 446
Cc1ccc(C(=O)/C=C/c2ccc(C(=O)N3CCN(c4ccnc5cc(Cl)ccc45)CC3)cc2)o1 | 32
Cc1ccc(C(=O)/C=C/c2ccc(C(=O)NCCCCCCNc3ccnc4cc(Cl)ccc34)cc2)o1 | 435

Now, please, on to the next compound.
[in] # selectivity ratio lookup, item Cc1ccc(C(=O)/C=C/c2ccc(C(=O)NCCCN(C)CCCNc3ccnc4cc(Cl)ccc34)cc2)o1
[out] 58

====

# Tested on: Plasmodium falciparum
# assayProcedure: Antimalarial activity against Plasmodium falciparum 3D7 after 48 hrs by LDH colorimetric assay
# Type: functional, organism-based
# conditionNotes: 3D7, 48 h
Exercise: for every item that follows, state its recorded IC50.
Numbers only, in nM.

Can you give me IC50 for all of these, one by one?
1. Cc1ccc(C(=O)/C=C/c2ccc(C(=O)NCCCCCCNc3ccnc4cc(Cl)ccc34)cc2)o1
2. Cc1ccc(C(=O)/C=C/c2ccc(C(=O)NCCCNc3ccnc4cc(Cl)ccc34)cc2)o1
3. Cc1ccc(C(=O)/C=C/c2ccc(C(=O)NCCNc3ccnc4cc(Cl)ccc34)cc2)o1
4. Cc1ccc(C(=O)/C=C/c2ccc(C(=O)O)cc2)o1

[out]
1. 50
2. 70
3. 110
4. 18400
